# Test system: hemoglobin
# ASSAY NAME: Residual hemoglobin-binding capacity of haptoglobin after heat treatment (60° C., 10 hours)
# Type: physicochemical
# CONDITION SUMMARY: stabilizer amount 20%; haptoglobin solution of Example 1; 60° C., 10 hours
Measured Residual hemoglobin-binding capacity of haptoglobin after heat treatment of individual entries
READOUT: Residual hemoglobin-binding capacity of haptoglobin after heat treatment (%)

COMPOUND: C[C@H](N)C(=O)O
UNIT SYMBOL: %
RESULT: 75

COMPOUND: NCC(=O)O
UNIT SYMBOL: %
RESULT: 95

COMPOUND: OC[C@H]1OC(O)[C@H](O)[C@@H](O)[C@@H]1O (stereo partly shown)
UNIT SYMBOL: %
RESULT: 60

COMPOUND: OC[C@@H](O)[C@@H](O)[C@H](O)[C@H](O)CO
UNIT SYMBOL: %
RESULT: 85

====

# System: hemoglobin
# ASSAY NAME: Residual hemoglobin-binding capacity of haptoglobin after heat treatment (60° C., 10 hours)
# Format: physicochemical
# CONDITION SUMMARY: stabilizer amount 15%; haptoglobin solution of Example 1; 60° C., 10 hours
Items are presented alongside their recorded Residual hemoglobin-binding capacity of haptoglobin after heat treatment.
READOUT: Residual hemoglobin-binding capacity of haptoglobin after heat treatment (%)

COMPOUND: C[C@H](N)C(=O)O
RESULT: 50

COMPOUND: OC[C@H]1OC(O)[C@H](O)[C@@H](O)[C@@H]1O (stereo partly shown)
RESULT: 45

COMPOUND: OC[C@@H](O)[C@@H](O)[C@H](O)[C@H](O)CO
RESULT: 80

COMPOUND: NCC(=O)O
RESULT: 95

====

Residual hemoglobin-binding capacity of haptoglobin after heat treatment values by entry
# Test system: hemoglobin
# ASSAY NAME: Residual hemoglobin-binding capacity of haptoglobin after heat treatment (60° C., 10 hours)
# Assay type: physicochemical
# CONDITION SUMMARY: stabilizer amount 20%, dialysate of Example 3
READOUT: Residual hemoglobin-binding capacity of haptoglobin after heat treatment (%)

COMPOUND: OC[C@@H](O)[C@@H](O)[C@H](O)[C@@H](O)CO [Sorbitol, sorbitol]
ASSAYED TARGET: hemoglobin
UNIT SYMBOL: %
RESULT: 76
--
COMPOUND: OC[C@H]1OC(O)[C@H](O)[C@@H](O)[C@@H]1O (stereo partly drawn) [Glucose, glucose]
ASSAYED TARGET: hemoglobin
UNIT SYMBOL: %
RESULT: 72
--
COMPOUND: NCC(=O)O [Glycine, glycine]
ASSAYED TARGET: hemoglobin
UNIT SYMBOL: %
RESULT: 92
--
COMPOUND: C[C@H](N)C(=O)O [Alanine, alanine]
ASSAYED TARGET: hemoglobin
UNIT SYMBOL: %
RESULT: 83
--
COMPOUND: OC[C@H]1O[C@@](CO)(O[C@H]2O[C@H](CO)[C@@H](O)[C@H](O)[C@H]2O)[C@@H](O)[C@@H]1O [Sucrose, sucrose]
ASSAYED TARGET: hemoglobin
UNIT SYMBOL: %
RESULT: 68
--
COMPOUND: OC[C@@H](O)[C@@H](O)[C@H](O)[C@H](O)CO [Mannitol, mannitol]
ASSAYED TARGET: hemoglobin
UNIT SYMBOL: %
RESULT: 85
